Cited source for all entries: paper PMC10578308

Consider the following compounds and their measured CC50 readings.
system: human A549 lung cancer cells; experiment: MTS antiproliferative/cell viability assay in A549 cells; assay type: cell-based; conditions: human A549 lung cancer cells, MTS, 72 h, n = 3; read-out: CC50 (concentration for a 50% decrease in viability)
Positions of bridges follow the written chain, without caps; N, C: chain ends. Non-standard residues stand in square brackets, D forms with d. Residues, ends and D or L forms follow the SMILES beside them. *: point of attachment. NMe2Val = CC(C)[C@@H](C(=O)*)N(C)C; NMeI = CC[C@H](C)[C@H](NC)C(=O)O; NMeT = CN[C@H](C(=O)O)[C@@H](C)O; NMeL = CN[C@@H](CC(C)C)C(=O)O; dHiv = CC(C)[C@@H](O)C(=O)O; NMeS = CN[C@@H](CO)C(=O)O; NMeA = CN[C@@H](C)C(=O)O; dNMeA = CN[C@H](C)C(=O)O

COMPOUND	CC50 / nM
CC[C@H](C)[C@H]1C(=O)N[C@@H](C)C(=O)N(C)[C@@H](CC(C)C)C(=O)N[C@@H](Cc2ccc(OC)cc2)C(=O)N(C)[C@H](C)C(=O)O[C@H](C)[C@H](N(C)C(=O)[C@H](CC(C)C)N(C)C(=O)[C@H](C)N(C)C(=O)[C@H](OC(=O)[C@H](C(C)C)N(C)C)C(C)C)C(=O)N(C)[C@@H](C)C(=O)N1C [Peptide 1b, reference compound] (NMe2Val-[dHiv][NMeA][NMeL][NMeT][NMeA][NMeI]A[NMeL]Y(Me)[dNMeA]; ester 4-C)	3.1
CC[C@H](C)[C@H]1C(=O)N[C@@H](C)C(=O)N(C)[C@@H](CC(C)C)C(=O)N[C@@H](Cc2ccc(OC)cc2)C(=O)N(C)[C@H](C)C(=O)N[C@H](C)[C@H](N(C)C(=O)[C@H](CC(C)C)N(C)C(=O)[C@H](C)N(C)C(=O)[C@H](OC(=O)[C@H](C(C)C)N(C)C)C(C)C)C(=O)N(C)[C@@H](C)C(=O)N1C [Peptide 16a]	3.6
CC[C@H](C)[C@H]1C(=O)N[C@@H](C)C(=O)N(C)[C@@H](CC(C)C)C(=O)N[C@@H](Cc2ccc(OC)cc2)C(=O)N(C)[C@H](C)C(=O)O[C@H](C)[C@H](N(C)C(=O)[C@H](CC(C)C)N(C)C(=O)[C@H](COC)N(C)C(=O)[C@H](OC(=O)[C@H](C(C)C)N(C)C)C(C)C)C(=O)N(C)[C@@H](COC)C(=O)N1C [Coibamide A (1a), coibamide A] (NMe2Val-[dHiv][NMeS](Me)[NMeL][NMeT][NMeS](Me)[NMeI]A[NMeL]Y(Me)[dNMeA]; ester 4-C)	1.5
CC[C@H](C)[C@H]1C(=O)N[C@@H](C)C(=O)N(C)[C@@H](CC(C)C)C(=O)N[C@@H](Cc2ccc(-c3ccccc3)cc2)C(=O)N(C)[C@H](C)C(=O)N[C@H](C)[C@H](N(C)C(=O)[C@H](CC(C)C)N(C)C(=O)[C@H](COC)N(C)C(=O)[C@H](OC(=O)[C@H](C(C)C)N(C)C)C(C)C)C(=O)N(C)[C@@H](COC)C(=O)N1C [Peptide 16c]	0.27
CC[C@H](C)[C@H]1C(=O)N[C@@H](C)C(=O)N(C)[C@@H](CC(C)C)C(=O)N[C@@H](Cc2ccc(OC)cc2)C(=O)N(C)[C@H](C)CC[C@H](C)[C@H](N(C)C(=O)[C@H](CC(C)C)N(C)C(=O)[C@H](C)N(C)C(=O)[C@H](OC(=O)[C@H](C(C)C)N(C)C)C(C)C)C(=O)N(C)[C@@H](C)C(=O)N1C [Peptide 3a]	41
